Where these numbers come from: ChEMBL document CHEMBL5046317

# Tested on: MOG-G-UVW
# assay_details: Antiproliferative activity against human MOG-G-UVW cells assessed as inhibition of cell proliferation incubated for 72 hrs by cell titer-Glo assay
# Assay type: functional, cell-based
pIC50: −log10 of the molar value.
Binary call on pIC50: y from 7 upward, n beneath that.

{"compound": "CC(C)O[C@H]1CC[C@H](C(=O)N2Cc3cccnc3Nc3cnc(C4COCCO4)cc32)CC1 (stereo partly drawn)", "cat": "n"}
{"compound": "CC(C)O[C@H]1CC[C@H](C(=O)N2Cc3cccnc3Nc3ccc(N4CC5CCC4CO5)c(F)c32)CC1 (stereo partly drawn)", "cat": "n"}
{"compound": "CC(C)O[C@H]1CC[C@H](C(=O)N2Cc3cc(F)cnc3Nc3ccc(N4C[C@H]5CC[C@@H]4CO5)cc32)OC1", "cat": "y"}
{"compound": "CC(C)O[C@H]1CC[C@H](C(=O)N2Cc3cc(F)cnc3Nc3ccc(C4COCCO4)cc32)OC1 (stereo partly drawn)", "cat": "y"}
{"compound": "CC(C)O[C@H]1CC[C@H](C(=O)N2Cc3cncnc3Nc3ccc(N4C[C@@H]5C[C@H]4CO5)cc32)CC1", "cat": "n"}
{"compound": "CC(C)O[C@H]1CC[C@H](C(=O)N2Cc3cccnc3Nc3cc(F)c(C4COCCO4)cc32)OC1 (stereo partly drawn)", "cat": "y"}

* * *

# Tested on: P-gp (Mdr1) (Rattus norvegicus)
# assay_details: Substrate activity at rat P-gp transfected in […]-MDR1 expressing Mdr1 gene assessed as efflux ratio of permeability across basolateral to apical membrane at 0.1 uM

{"compound": "CC(C)O[C@H]1CC[C@H](C(=O)N2Cc3cc(Cl)cnc3Nc3ccc(N4CC5CCC4CO5)cc32)CC1 (stereo partly specified)", "efflux ratio at 0.1 µM": 4.6}

* * *

CLint scaled values, listed per item
# assay_details: Metabolic stability in human liver microsomes assessed as intrinsic clearance
# Assay type: ADME, Microsome
# measurement_setup: read-out: CLH

{"compound": "CC(C)O[C@H]1CC[C@H](C(=O)N2Cc3cccnc3Nc3ccc(N4C[C@H]5CC[C@@H]4CO5)cc32)OC1", "CLint scaled [mL/min/kg]": 21}
{"compound": "CC(C)O[C@H]1CC[C@H](C(=O)N2Cc3nccnc3Nc3ccc(C4CCOCC4)cc32)CC1", "CLint scaled [mL/min/kg]": 92}
{"compound": "CC(C)O[C@H]1CC[C@H](C(=O)N2Cc3cncnc3Nc3ccc(N4C[C@@H]5C[C@H]4CO5)cc32)CC1", "CLint scaled [mL/min/kg]": 177}
{"compound": "CC(C)O[C@H]1CC[C@H](C(=O)N2Cc3cccnc3Nc3ccc(N4C[C@@H]5C[C@H]4CO5)cc32)CC1", "CLint scaled [mL/min/kg]": 34}
{"compound": "CC(C)O[C@H]1CC[C@H](C(=O)N2c3cc(N4C[C@@H]5C[C@H]4CO5)ccc3Nc3ncccc3C2C)CC1 (some centres not stated)", "CLint scaled [mL/min/kg]": 143}
{"compound": "O=C(C1CCN(CC(F)(F)F)CC1)N1Cc2cc(F)cnc2Nc2ccc(N3C[C@@H]4C[C@H]3CO4)cc21", "CLint scaled [mL/min/kg]": 33}
{"compound": "CC(C)O[C@H]1CC[C@H](C(=O)N2Cc3cccnc3Nc3ccc(N4CC5CCC4CO5)c(F)c32)CC1 (some centres not stated)", "CLint scaled [mL/min/kg]": 210}
{"compound": "O=C(C1CCc2ccccc2CC1)N1Cc2cccnc2Nc2ccc(N3CCOCC3)cc21", "CLint scaled [mL/min/kg]": 1500}
{"compound": "CC(C)O[C@H]1CC[C@H](C(=O)N2Cc3cccnc3Nc3ccc(C4COCCO4)cc32)OC1 (some centres not stated)", "CLint scaled [mL/min/kg]": 34}
{"compound": "CC(C)O[C@H]1CC[C@H](C(=O)N2Cc3cc(F)cnc3Nc3ccc(-c4cnn(C)c4)cc32)OC1", "CLint scaled [mL/min/kg]": 51}
{"compound": "CC(C)O[C@H]1CC[C@H](C(=O)N2Cc3cc(F)cnc3Nc3ccc(C4COCCO4)cc32)OC1 (some centres not stated)", "CLint scaled [mL/min/kg]": 50}
{"compound": "CC(C)O[C@H]1CC[C@H](C(=O)N2Cc3cc(F)cnc3Nc3ccc(N4C[C@H]5CC[C@@H]4CO5)cc32)OC1", "CLint scaled [mL/min/kg]": 22}
